# METHOD: Confirmatory qHTS for small molecule stabilizers of the endoplasmic reticulum resident proteome: Secreted ER Calcium Modulated Protein (SERCaMP) assay (AID 1508628); further: nearly all actives have a fitted effect of over 40% in size
# MEASUREMENT CONDITIONS: SERCaMP secreted luciferase ER calcium/proteostasis reporter; series mostly up to 76.3 µM
Results filed as inconclusive are left out. Active and inactive are the calls of the source. The call rests on the fitted dose curve; in most records, active means well fitted inhibition curve with a large enough effect; inconclusive means small, poorly fitted or top-dose-only effect; inactive means no such curve, though single readings can be large or run the other way.
Your reply should match one of these outcome classes. y for active, n for inactive

As a guide, the following entries are already answered.
CN1C2CCC1CC(OC(=O)C(CO)c1ccccc1)C2 (configuration not stated) ... y
Cc1ccc(C(=O)Nc2ccc(S(=O)(=O)O)c3cc(S(=O)(=O)O)cc(S(=O)(=O)O)c23)cc1NC(=O)c1cccc(NC(=O)Nc2cccc(C(=O)Nc3cc(C(=O)Nc4ccc(S(=O)(=O)O)c5cc(S(=O)(=O)O)cc(S(=O)(=O)O)c45)ccc3C)c2)c1 ... y
Clc1ccc2c(c1)C(N1CCNCC1)=Nc1ccccc1O2 ... n
CCCNCC(O)COc1ccccc1C(=O)CCc1ccccc1 (configuration not stated) ... n
CN(C)CCCN1c2ccccc2CCc2ccc(Cl)cc21 ... n
CCCCc1oc2ccccc2c1C(=O)c1cc(I)c(OCCN(CC)CC)c(I)c1 ... n

Okay, now this compound:
Give the logged outcome of this assay for the following compound: Cn1c(=O)c2c(ncn2C)n(C)c1=O
n

---

# Tested on: Zika virus NS2B-NS3 protease (unlinked)
# METHOD: Optimization of GU AMC qHTS for Zika virus inhibitors: Unlinked NS2B-NS3 protease assay (AID 1347151); further: nearly all actives have a fitted effect of over 80% in size
# MEASUREMENT CONDITIONS: recombinant ZIKV NS2B-NS3 protease, fluorogenic AMC substrate; series mostly up to 52.5 µM
Inconclusive results are not listed. Active and inactive are the calls of the source. Calls follow the shape of the dose curve; as a rule, active = well fitted inhibition curve with a large enough effect; inconclusive = small, poorly fitted or top-dose-only effect; inactive = no such curve, though single readings can be large or run the other way.
Your reply should match one of these outcome classes. label 1 = active, label 0 = inactive

As a guide, the following entries are already answered.
COc1cc2nc(N3CCN(C(=O)C4COc5ccccc5O4)CC3)nc(N)c2cc1OC (stereo unspecified) ... label 1
Cn1cnc2c1c(=O)[nH]c(=O)n2C ... label 0
Nc1nnc(-c2cccc(Cl)c2Cl)c(N)n1 ... label 0
COc1ccccc1OCC(O)CN1CCN(CC(=O)Nc2c(C)cccc2C)CC1 (stereo unspecified) ... label 0
NC12CC3CC(CC(C3)C1)C2 ... label 0

Okay, now this compound:
Give the logged outcome of this assay for the following compound: OCCN1CCN(CCCN2c3ccccc3Sc3ccc(C(F)(F)F)cc32)CC1
label 0

---

# STUDY SYSTEM: Cytochrome P450 2C9 (Homo sapiens) (UniProt P11712)
# Sequence (P11712 whole entry, looked up): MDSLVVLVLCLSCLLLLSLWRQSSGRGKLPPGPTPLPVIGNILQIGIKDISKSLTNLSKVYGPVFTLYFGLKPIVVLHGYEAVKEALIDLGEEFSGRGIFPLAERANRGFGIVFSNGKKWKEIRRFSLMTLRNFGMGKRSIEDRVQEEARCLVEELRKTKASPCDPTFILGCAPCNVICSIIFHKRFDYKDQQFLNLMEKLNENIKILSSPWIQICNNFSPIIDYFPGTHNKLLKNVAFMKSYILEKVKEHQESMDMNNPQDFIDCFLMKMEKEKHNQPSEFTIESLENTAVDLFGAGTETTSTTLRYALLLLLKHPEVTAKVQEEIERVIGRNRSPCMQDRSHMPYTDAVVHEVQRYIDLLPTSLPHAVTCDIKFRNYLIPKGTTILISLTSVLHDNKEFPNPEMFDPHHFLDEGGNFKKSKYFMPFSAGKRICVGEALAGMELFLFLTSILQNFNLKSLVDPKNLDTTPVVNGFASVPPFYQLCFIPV
# METHOD: Cytochrome P450 family 2 subfamily C member 9 (CYP2C9) small molecule antagonists: luciferase biochemical (cell-free) qHTS assay (AID 1645842); further: nearly all actives have a fitted effect of over 55% in size
# MEASUREMENT CONDITIONS: P450-Glo CYP2C9 enzyme assay, luciferin luminescence; series mostly up to 57.4 µM
Records with an inconclusive call do not appear. Activity calls are given as the source filed them. Calls follow the shape of the dose curve; as a rule, active = well fitted inhibition curve with a large enough effect in the repeat runs; inconclusive = weak or mixed curves; inactive = no such curve, though single readings can be large or run the other way.
Your reply should match one of these outcome classes. active, inactive

Give the logged outcome of this assay for the following molecule: Clc1ccc2c(c1)C(N1CCNCC1)=Nc1ccccc1O2
inactive

Now consider CC(CCc1ccc(O)cc1)NCCc1ccc(O)c(O)c1 (configuration not stated) and answer again.
inactive

Now consider CN(CCOc1ccc(NS(C)(=O)=O)cc1)CCc1ccc(NS(C)(=O)=O)cc1 and answer again.
inactive

Now consider CN(C)CCC=C1c2ccccc2C=Cc2ccccc21 and answer again.
inactive

Now consider CN1CCN2c3ccccc3Cc3ccccc3C2C1 (configuration not stated) and answer again.
inactive

Now consider CCN1CCCC1CNC(=O)c1cc(S(=O)(=O)CC)c(N)cc1OC (configuration not stated) and answer again.
inactive

Now consider Cc1cn([C@H]2C=C[C@@H](CO)O2)c(=O)[nH]c1=O and answer again.
inactive

Now consider C[C@](N)(Cc1ccc(O)c(O)c1)C(=O)O and answer again.
inactive

Now consider CC(COc1ccccc1)N(CCCl)Cc1ccccc1 (configuration not stated) and answer again.
active

---

# METHOD: Quantitative high throughput screen for delayed death inhibitors of the malarial parasite plastid, 48 hour incubation (AID 488752); further: nearly all actives have a fitted effect of over 65% in size
# MEASUREMENT CONDITIONS: Plasmodium falciparum growth; series mostly up to 28.7 µM
Inconclusive results are not listed. The source made the active and inactive calls. Calls follow the shape of the dose curve; as a rule, active = well fitted inhibition curve with a large enough effect; inconclusive = small, poorly fitted or top-dose-only effect, or effect the other way; inactive = flat fitted curve, though single readings scatter.
Your reply should match one of these outcome classes. y for active, n for inactive

As a guide, the following entries are already answered.
CC(CCc1ccc(O)cc1)NCCc1ccc(O)c(O)c1 (stereo unspecified) ... y
Clc1ccc(C(c2ccccc2Cl)C(Cl)Cl)cc1 (stereo unspecified) ... n
CC(C)C(=O)Nc1ccc([N+](=O)[O-])c(C(F)(F)F)c1 ... n
CNCCCC12CCC(c3ccccc31)c1ccccc12 ... n
Cc1cn([C@H]2C=C[C@@H](CO)O2)c(=O)[nH]c1=O ... n

Okay, now this compound:
Give the logged outcome of this assay for the following compound: CS(=O)(=O)Nc1ccc([N+](=O)[O-])cc1Oc1ccccc1
n

---

# Tested on: CP268
# METHOD: qHTS profiling for inhibitors of Plasmodium falciparum proliferation (AID 504749); further: nearly all actives have a fitted effect of over 60% in size
# MEASUREMENT CONDITIONS: P. falciparum in erythrocytes, SYBR Green DNA, 72 h; series mostly up to 28.7 µM
Records with an inconclusive call do not appear. Activity calls are given as the source filed them. Calls follow the shape of the dose curve; as a rule, active = well fitted inhibition curve with a large enough effect; inconclusive = small, poorly fitted or top-dose-only effect; inactive = flat fitted curve, though single readings scatter.
Your reply should match one of these outcome classes. y for active, n for inactive

As a guide, the following entries are already answered.
Clc1ccccc1C(c1ccccc1)(c1ccccc1)n1ccnc1 ... y
COc1nc(C)nc(Cl)c1NC1=NCCN1 ... n
O=C(c1ccc(OCCN2CCCCC2)cc1)c1c(-c2ccc(O)cc2)sc2cc(O)ccc12 ... y

Give the logged outcome of this assay for the following molecule: Clc1ccc2c(c1)C(N1CCNCC1)=Nc1ccccc1O2
n

Now consider NC(=O)NO and answer again.
n

Now consider Cc1cnc(C(=O)NCCc2ccc(S(=O)(=O)NC(=O)NC3CCCCC3)cc2)cn1 and answer again.
n

---

# Test system: C33A
# METHOD: Primary qHTS to identify gynecologic anti-cancer compounds using libraries of approved drugs and bioactive compounds (AID 1345084); further: nearly all actives have a fitted effect of over 55% in size
# MEASUREMENT CONDITIONS: Gynecologic cancer cell panel viability, ATPlite luminescence, 48 h; series mostly up to 57.5 µM
# Excerpt: National Center for Advancing Translational Sciences [NCATS] Assay Overview: Chemotherapeutic drug responses vary from cancer to cancer and from patient to patient. […] ATPlite is a luminescence based assay reliant on the conversion of a luciferase substrate to light in the presence of ATP. As a cytotoxic compound will suppress growth and decrease the number of cells, the concentration of ATP will decrease, and less light signal will be detected in the well. […]
Inconclusive results are not listed. Calls of active or inactive are those of the source. Calls follow the shape of the dose curve; as a rule, active = well fitted cell-killing curve with a large enough effect; inconclusive = small, poorly fitted or top-dose-only effect, or effect the other way; inactive = flat fitted curve, though single readings scatter.
Your reply should match one of these outcome classes. active, inactive

COC(=O)Nc1nc2ccc(C(=O)c3cccs3)cc2[nH]1 ... active

Give the logged outcome of this assay for the following compound: CN1CCN(CCCN2c3ccccc3Sc3ccc(Cl)cc32)CC1
inactive

Now consider COc1cc2nc(N(C)CCCNC(=O)C3CCCO3)nc(N)c2cc1OC (stereo unspecified) and answer again.
inactive

Now consider CN(C)c1nc(N(C)C)nc(N(C)C)n1 and answer again.
inactive

Now consider Cc1ccccc1N1C(=O)c2cc(S(N)(=O)=O)c(Cl)cc2NC1C (stereo unspecified) and answer again.
inactive

Now consider Cn1c(=O)c2c(ncn2C)n(C)c1=O and answer again.
inactive

---

# METHOD: qHTS Assay for Lipid Storage Modulators (AID 1519); further: on the % scale 0 is the no-effect control and ±100 the full control effect
# MEASUREMENT CONDITIONS: Drosophila S3 cells, BODIPY lipid droplet/cell ratio, laser cytometry; at 57.5 µM (top of the series); cells loaded with oleic acid
Results filed as inconclusive are left out.
// values below are reported activity change, negative = inhibition
Entry rule: numbers only, all in %.

Some solved entries appear below for comparison.
NS(=O)(=O)c1cc2c(cc1Cl)NCNS2(=O)=O ... 7.4
Nc1nc2c(ncn2COC(CO)CO)c(=O)[nH]1 ... -0.373
CN(C)CCC=C1c2ccccc2C=Cc2ccccc21 ... 0.751
CN(C)C(=N)N=C(N)N ... 9.29
COc1ccccc1OCC(O)CN1CCN(CC(=O)Nc2c(C)cccc2C)CC1 (stereo not given) ... 13.2
C[C@](N)(Cc1ccc(O)c(O)c1)C(=O)O ... 1.88
O=C1c2c(O)ccc(O)c2C(=O)c2c(NCCNCCO)ccc(NCCNCCO)c21 ... -5.29
COc1ccccc1OCCNCC(O)COc1cccc2[nH]c3ccccc3c12 (stereo not given) ... 6.43

Entry under review: Clc1ccccc1C(c1ccccc1)(c1ccccc1)n1ccnc1 . Reported activity change, negative = inhibition?
9.89

Now consider CN(C)CCCN1c2ccccc2CCc2ccc(Cl)cc21 and answer again.
1.94

Now consider O=c1c(-c2ccc(O)cc2)coc2cc(O)cc(O)c12 and answer again.
-6.97

Now consider Cc1cn([C@H]2C=C[C@@H](CO)O2)c(=O)[nH]c1=O and answer again.
1.52

Now consider Fc1ccc([C@@H]2CCNC[C@H]2COc2ccc3c(c2)OCO3)cc1 and answer again.
-0.973
